Attribution: PubChem BioAssay AID1918936

system: 349418-098-R-PDC complex spheroid viability; experiment: Anticancer human tumor 349418-098-R-PDC patient-derived lung adenocarcinoma cell line growth inhibition; conditions: second compound 10 µM; first compound 0.0316 µM; active compounds read low
Assignment: determine reported viability, T/C for the given molecules.

Worked examples follow.
Molecule: Cn1ncnc1C1c2n[nH]c(=O)c3cc(F)cc(c23)NC1c1ccc(F)cc1 (configuration not stated) + NC1CCC(NC2CC2c2ccccc2)CC1
Target Desc: 349418-098-R-PDC complex spheroid viability
Assay Value: 83.7%
//
Molecule: Nc1ncn(C2CC(O)C(CO)O2)c(=O)n1 (configuration not stated) + NC1CC1c1ccc(-c2cccc(O)c2)cc1
Target Desc: 349418-098-R-PDC complex spheroid viability
Assay Value: 67.8%
//
Molecule: O=C(C=Cn1cnc(-c2cc(C(F)(F)F)cc(C(F)(F)F)c2)n1)NNc1cnccn1 + NC1CC1c1ccc(-c2cccc(O)c2)cc1
Target Desc: 349418-098-R-PDC complex spheroid viability
Assay Value: 7.71%
//
Molecule: CC1COCCN1c1cc(-c2ccnn2C)c2ccnc(-c3ccn[nH]3)c2n1 (configuration not stated) + NC1CCC(NC2CC2c2ccccc2)CC1
Target Desc: 349418-098-R-PDC complex spheroid viability
Assay Value: 14.5%
//
Molecule: CC(C)c1c(-c2ccccc2)nc2c(C#N)c[nH]n2c1=O + NC1CCC(NC2CC2c2ccccc2)CC1
Target Desc: 349418-098-R-PDC complex spheroid viability;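 note: spheroids exposed to agents for seven days before readout; 100% = DMSO vehicle control wells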
Assay Value: 101%
//
Molecule: Cn1ncnc1C1c2n[nH]c(=O)c3cc(F)cc(c23)NC1c1ccc(F)cc1 (configuration not stated) + NC1CC1c1ccc(-c2cccc(O)c2)cc1
Target Desc: 349418-098-R-PDC complex spheroid viability;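 note: spheroids exposed to agents for seven days before readout; 100% = DMSO vehicle control wells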
Assay Value: 90.9%
//
Molecule: CC1(C)CCC(CN2CCN(c3ccc(C(=O)NS(=O)(=O)c4ccc(NCC5CCOCC5)c([N+](=O)[O-])c4)c(Oc4cnc5[nH]ccc5c4)c3)CC2)=C(c2ccc(Cl)cc2)C1 + NC1CC1c1ccc(-c2cccc(O)c2)cc1
Target Desc: 349418-098-R-PDC complex spheroid viability;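 note: spheroids exposed to agents for seven days before readout; 100% = DMSO vehicle control wells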
Assay Value: 96.3%
//
Molecule: O=C(c1cc(Cc2n[nH]c(=O)c3ccccc23)ccc1F)N1CCN(C(=O)C2CC2)CC1 + NC1CCC(NC2CC2c2ccccc2)CC1
Target Desc: 349418-098-R-PDC complex spheroid viability;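 note: spheroids exposed to agents for seven days before readout; 100% = DMSO vehicle control wells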
Assay Value: 89.5%

Take each entry in turn and give its viability, T/C.
1. CC(C)CC(NC(=O)C(Cc1ccccc1)NC(=O)c1cnccn1)B(O)O (configuration not stated) + NC1CC1c1ccc(-c2cccc(O)c2)cc1
2. COc1cc(Nc2ncc3c(n2)-c2ccc(Cl)cc2C(c2c(F)cccc2OC)=NC3)ccc1C(=O)O + NC1CC1c1ccc(-c2cccc(O)c2)cc1
3. CC(C)c1c(-c2ccccc2)nc2c(C#N)c[nH]n2c1=O + NC1CC1c1ccc(-c2cccc(O)c2)cc1
4. CC(C)CC(NC(=O)CNC(=O)c1cc(Cl)ccc1Cl)B1OC(=O)CC(CC(=O)O)(C(=O)O)O1 (configuration not stated) + NC1CCC(NC2CC2c2ccccc2)CC1

["0.14%", "55.1%", "86.1%", "1.03%"]

Take each entry in turn and give its viability, T/C.
1. CC1COCCN1c1cc(-c2ccnn2C)c2ccnc(-c3ccn[nH]3)c2n1 (configuration not stated) + NC1CC1c1ccc(-c2cccc(O)c2)cc1
2. Nc1ncn(C2CC(O)C(CO)O2)c(=O)n1 (configuration not stated) + NC1CCC(NC2CC2c2ccccc2)CC1
3. CC[C@@]1(O)C(=O)OCc2c1cc1n(c2=O)Cc2cc3c(CN(C)C)c(O)ccc3nc2-1 + NC1CCC(NC2CC2c2ccccc2)CC1

1: 6.32%; 2: 36%; 3: 4.67%

Take each entry in turn and give its viability, T/C.
1. CC(C)CC(NC(=O)CNC(=O)c1cc(Cl)ccc1Cl)B1OC(=O)CC(CC(=O)O)(C(=O)O)O1 (configuration not stated) + NC1CC1c1ccc(-c2cccc(O)c2)cc1
2. CC1COCCN1c1cc(C2(S(C)(=N)=O)CC2)nc(-c2ccnc3[nH]ccc23)n1 (configuration not stated) + NC1CCC(NC2CC2c2ccccc2)CC1

0.47%
107%
